Tested on: Staphylococcus aureus X1.1
VALUE_KIND: MIC (µg/mL)
State the answer as a number, implicitly in µg/mL.

Please review the entries below; each comes with its answer.
- COMPOUND: "CCC1OC(=O)CC(O)C(C)C(OC2OC(C)C(O)C(N(C)C)C2O)C(CC=O)CC(C)C(=O)C=CC(C)=CC1CNC12CC3CC(CC(C3)C1)C2 (centres unmarked)"
  VALUE_UNIT: "µg/mL"
  MIC: 0.5
- COMPOUND: "CCC1OC(=O)CC(O)C(C)C(OC2OC(C)C(O)C(N(C)C)C2O)C(CC=O)CC(C)C(=O)C=CC(C)=CC1CN1CCCC12CCCCC2 (centres unmarked)"
  VALUE_UNIT: "µg/mL"
  MIC: 0.5
- COMPOUND: "CCC1OC(=O)CC(O)C(C)C(OC2OC(C)C(O)C(N(C)C)C2O)C(CC=O)CC(C)C(=O)C=CC(C)=CC1CN1C2CCCCC2C2CCCCC21 (centres unmarked)"
  VALUE_UNIT: "µg/mL"
  MIC: 0.5

stdin: Given the compound CCC1OC(=O)CC(O)C(C)C(OC2OC(C)C(O)C(N(C)C)C2O)C(CC=O)CC(C)C(=O)C=CC(C)=CC1CN1CCCC2CCCCC21 (centres unmarked) [Compound 20, 23-deoxy-23-(decahydroquinolin-1-yl)-OMT] , write its reported MIC.
stdout: 0.25

stdin: Given the compound CCC1OC(=O)CC(O)C(C)C(OC2OC(C)C(O)C(N(C)C)C2O)C(CC=O)CC(C)C(=O)C=CC(C)=CC1CN1CC2(C)CC1CC(C)(C)C2 (centres unmarked) , write its reported MIC.
stdout: 0.5
